Attribute: MIC
test system: A. baumannii; experiment: MIC broth microdilution (CLSI); type: cell-based; conditions: Acinetobacter baumannii, read-out: Activity (MIC), strain NABA0007, ΔadeJK efflux

compound | MIC
C[C@@H](N)[C@@H]1CC[C@@H](N)[C@@H](O[C@@H]2[C@@H](N)[C@H](O)[C@@H](NC(=O)[C@@H](O)[C@H](F)CN)[C@H](O)[C@H]2O[C@@H]2O[C@H](CO)[C@@H](O[C@H]3O[C@@H](CN)[C@@H](O)[C@H](O)[C@H]3N)[C@H]2O)O1 [Compound 4] | < 16 µg/mL
NCC[C@H](O)C(=O)N[C@@H]1[C@@H](O)[C@H](N)[C@@H](O[C@H]2O[C@H](CN)CC[C@H]2N)[C@H](O[C@@H]2O[C@H](CO)[C@@H](O[C@H]3O[C@@H](CN)[C@@H](O)[C@H](O)[C@H]3N)[C@H]2O)[C@H]1O [Compound 2] | < 16 µg/mL
C[C@H](N)[C@@H]1CC[C@@H](N)[C@@H](O[C@@H]2[C@@H](N)[C@H](O)[C@@H](NC(=O)[C@@H](O)[C@H](F)CN)[C@H](O)[C@H]2O[C@@H]2O[C@H](CO)[C@@H](O[C@H]3O[C@@H](CN)[C@@H](O)[C@H](O)[C@H]3N)[C@H]2O)O1 [Compound 3] | < 16 µg/mL
CN[C@@H](C)[C@@H]1CC[C@@H](N)[C@@H](O[C@@H]2[C@@H](N)[C@H](O)[C@@H](NC(=O)[C@@H](O)[C@H](F)CN)[C@H](O)[C@H]2O[C@@H]2O[C@H](CO)[C@@H](O[C@H]3O[C@@H](CN)[C@@H](O)[C@H](O)[C@H]3N)[C@H]2O)O1 [Compound 7] | < 16 µg/mL
C[C@@H](N)[C@@H]1CC[C@@H](N)[C@@H](O[C@@H]2[C@@H](N)[C@H](O)[C@@H](NC(=O)[C@@H](O)CCN)[C@H](O)[C@H]2O[C@@H]2O[C@H](CO)[C@@H](O[C@H]3O[C@@H](CN)[C@@H](O)[C@H](O)[C@H]3N)[C@H]2O)O1 [Compound 5] | < 16 µg/mL
C[C@H](N)[C@@H]1CC[C@@H](N)[C@@H](O[C@@H]2[C@@H](N)[C@H](O)[C@@H](N)[C@H](O)[C@H]2O[C@@H]2O[C@H](CO)[C@@H](O[C@H]3O[C@@H](CN)[C@@H](O)[C@H](O)[C@H]3N)[C@H]2O)O1 [Compound 8] | < 16 µg/mL
NC[C@@H]1CC[C@@H](N)[C@@H](O[C@@H]2[C@@H](N)[C@H](O)[C@@H](NC(=O)[C@@H](O)[C@H](F)CN)[C@H](O)[C@H]2O[C@@H]2O[C@H](CO)[C@@H](O[C@H]3O[C@@H](CN)[C@@H](O)[C@H](O)[C@H]3N)[C@H]2O)O1 [Compound 1] | < 16 µg/mL
C[C@H](N)[C@@H]1CC[C@@H](N)[C@@H](O[C@@H]2[C@@H](N)[C@H](O)[C@@H](NC(=O)[C@@H](O)CCN)[C@H](O)[C@H]2O[C@@H]2O[C@H](CO)[C@@H](O[C@H]3O[C@@H](CN)[C@@H](O)[C@H](O)[C@H]3N)[C@H]2O)O1 [Compound 6] | < 16 µg/mL
